Taken from patent US20090074779A1.

Recorded Kd, one value per entry.
Biological target: T1, TrkB (UniProt Q16620 32-430, limits assumed)
T1 construct: also called NTRK2; TrkB receptor
T1 sequence (Q16620 32-430 limits assumed): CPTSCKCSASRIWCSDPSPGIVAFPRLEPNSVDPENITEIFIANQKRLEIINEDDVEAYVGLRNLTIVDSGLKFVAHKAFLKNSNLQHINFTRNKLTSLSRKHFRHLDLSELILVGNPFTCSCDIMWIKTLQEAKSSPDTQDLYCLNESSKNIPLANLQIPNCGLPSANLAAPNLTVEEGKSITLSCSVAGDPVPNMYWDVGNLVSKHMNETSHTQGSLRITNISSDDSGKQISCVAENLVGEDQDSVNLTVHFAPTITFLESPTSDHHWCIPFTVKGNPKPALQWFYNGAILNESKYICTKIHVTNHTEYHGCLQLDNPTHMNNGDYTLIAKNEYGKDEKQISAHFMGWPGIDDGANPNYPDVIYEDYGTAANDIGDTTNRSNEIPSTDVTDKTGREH
Assay: SPR (BIAlite), receptor amine-coupled on CM4 chip, ligand injected, 25 C
measured_attribute: Kd (nM)

| binder | reported_result |
| --- | --- |
| TFVKALTMDGKQAAWR (also called NGF derived peptide NGF-EE) [NGF-EE] | 10.3 |
| CVLSRKAVRRA [NGF-C2] | 883 |
| SYVRALTMDSKKRIGWR (also called BDNF derived peptide BDNF-EE) [BDNF-EE] | 38.7 |
| RGIDSKHWNSY (also called NGF derived peptide NGF-E) [NGF-E] | 254 |
| BDNF (ligand, UniProt P23560 129-247, looked up, also called brain-derived neurotrophic factor) HSDPARRGELSVCDSISEWVTAADKKTAVDMSGGTVTVLEKVPVSKGQLKQYFYETKCNPMGYTKEGCRGIDKRHWNSQCRTTQSYVRALTMDSKKRIGWRFIRIDTSCVCTLTIKRGR | 1.18 |
| RGIDKRHWNSQ (also called BDNF derived peptide BDNF-E) [BDNF-E] | 173 |
